# testDescription: Tmax of immediate release formulations following oral administration
# experimentalParameters: in vivo
measuredProperty: Tmax

For the molecule NCC1(CC(=O)O)CCCCC1 [gabapentin] , what Tmax is on record? 2.8 to 3.3 h
